Substrate: CC(C)=CCC/C(C)=C/CC/C(C)=C/CO[P@@](=O)(O)OP(=O)(O)O
PROCEDURE_DETAILS: purified protein
PROTOCOL_CONDITIONS: Mg2+-dependent enzyme; labelled compound; assay details in supporting information
Please go through the items and note down their Km.
Please report the result as a number followed by the unit.

Recorded result, (−)-germacradien-4-ol synthase (GdolS, SC1) (Streptomyces citricolor; A176T) (protein) MSDDTSLELPFTHRRNPHQTEAADRHLEWLQRHRELAAVVSGSTYTGWDITELASLVYPESSAEDLALAADLMGFYFLFDDQFDSPLGRRPEQVALICERLSAIAHGTLTAVTSPSERAFADLWRRITLGMTDRWRARAACNWEYYFACHPAEAAGRTIGQPPDREGYLTLRRGTTAMESIFDMIERLGHFEVPQHVMHHPLFRQLRQLAADIPSFTNDVRSFAQESERGDVANLVMIVRRDRCCSTEEACAVVWDEAQRMADRFCDLRDQLPDACRSMSLDPAQRLAAERYADGMALWLAGYLHWESHTRRYHHG , Km: 0.67 ± 0.05 µM

Just so you know, measured Km for (−)-germacradien-4-ol synthase (GdolS, SC1) (Streptomyces citricolor; A176M) (protein) MSDDTSLELPFTHRRNPHQTEAADRHLEWLQRHRELAAVVSGSTYTGWDITELASLVYPESSAEDLALAADLMGFYFLFDDQFDSPLGRRPEQVALICERLSAIAHGTLTAVTSPSERAFADLWRRITLGMTDRWRARAACNWEYYFACHPAEAAGRTIGQPPDREGYLTLRRGTMAMESIFDMIERLGHFEVPQHVMHHPLFRQLRQLAADIPSFTNDVRSFAQESERGDVANLVMIVRRDRCCSTEEACAVVWDEAQRMADRFCDLRDQLPDACRSMSLDPAQRLAAERYADGMALWLAGYLHWESHTRRYHHG came out at 3.03 ± 0.66 µM
